target: VOP 30A-4 (VZ+42/+530, mVZ+509) (synthetic); test: EMSA; upper bound; 10 mM Tris, 100 mM KCl, 1 mM MgCl2, 0.01 mM ZnCl2; settings: tags: MBP fusion (pMal-c2), SP1 backbone
Sequence (chain, as listed by the source): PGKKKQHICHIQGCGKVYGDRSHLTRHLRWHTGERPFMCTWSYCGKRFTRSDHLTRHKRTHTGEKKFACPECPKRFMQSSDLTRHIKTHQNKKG
pKd: −log10 of the molar value.
Measurement Type: pKd

Query: Consider the binder shown here: mVZ+509 target (dsDNA) DNA 1: GCTGGGGGCG DNA 2: CGCCCCCAGC What is its recorded pKd?
Reply: > 11.00

Source: patent US20030021776
